All figures here come from ChEMBL document CHEMBL4699489.

molecular target: UniProt P41145; experiment: Agonist activity at human KOR stably expressed in CHO cell membranes assessed as stimulation of [35S]-GTPgammaS binding incubated for 1 hr by liquid scintillation counting assay
Sequence (P41145 whole entry): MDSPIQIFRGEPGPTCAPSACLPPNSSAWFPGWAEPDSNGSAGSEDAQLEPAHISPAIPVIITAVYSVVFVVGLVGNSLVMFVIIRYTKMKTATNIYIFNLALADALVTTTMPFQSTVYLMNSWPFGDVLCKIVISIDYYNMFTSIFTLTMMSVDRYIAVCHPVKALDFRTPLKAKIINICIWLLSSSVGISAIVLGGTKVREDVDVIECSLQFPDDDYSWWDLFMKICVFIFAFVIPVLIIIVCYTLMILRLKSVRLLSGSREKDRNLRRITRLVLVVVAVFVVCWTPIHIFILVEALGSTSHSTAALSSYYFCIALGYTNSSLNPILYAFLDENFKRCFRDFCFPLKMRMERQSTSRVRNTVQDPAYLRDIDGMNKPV
Numbered stars: 1 amine (or outer) side, 2 acyl side, 3 side chain; on linkers, the order of the positions; unused ones are H or OH. Square brackets hold non-standard residues; d marks the D form. Peptide text beside a SMILES is read from it. X1 = O=C1[C@@H](N[*:1])Cc2ccccc2CN1CCC(=O)[*:2]; X2 = O=C([C@@H]1Cc2cc(O)ccc2CN1[*:1])[*:2]; Dmt = Cc1cc(O)cc(C)c1C[C@H](N)C(=O)O; β3hR = N=C(N)NCCC[C@H](N)CC(=O)O; Tle = CC(C)(C)[C@H](N)C(=O)O
// NB: equality with 500 nM counts as NOT MET; only EC50 strictly below is MET

{"COMPOUND": "Cc1cc(O)cc(C)c1C[C@H](NC(=O)[C@@H]1CCCN1C(=O)[C@H](CCCCN)NC(=O)[C@H](CCCCN)NC(=O)CCN1Cc2ccccc2C[C@H](NC(=O)[C@@H](CCCNC(=N)N)NC(=O)[C@@H](N)Cc2c(C)cc(O)cc2C)C1=O)C(=O)N[C@H](C(=O)N[C@@H](CC(C)C)C(=O)O)C(C)(C)C (H-[Dmt][dR][X1]KKP[Dmt][Tle]L-OH)", "LABEL": "NOT MET"}

Please indicate whether the reported EC50 of Cc1cc(O)cc(C)c1C[C@H](N)C(=O)N[C@H](CCCNC(=N)N)C(=O)N[C@H]1Cc2ccccc2CN(CCC(=O)N[C@@H](CCCCN)C(=O)N[C@@H](CCCCN)C(=O)N2CCC[C@H]2C(=O)N2Cc3ccc(O)cc3C[C@H]2C(=O)N[C@H](C(=O)N[C@@H](CC(C)C)C(=O)O)C(C)(C)C)C1=O (H-[Dmt][dR][X1]KKP[X2][Tle]L-OH) is strictly below 500 nM.
NOT MET

Please indicate whether the reported EC50 of Cc1cc(O)cc(C)c1C[C@H](N)C(=O)N[C@H](CCCNC(=N)N)C(=O)N[C@H]1Cc2ccccc2CN(CCC(=O)N[C@@H](CCCNC(=N)N)C(=O)N[C@@H](CCCNC(=N)N)C(=O)N2CCC[C@H]2C(=O)N2Cc3ccc(O)cc3C[C@H]2C(=O)N[C@H](C(=O)N[C@@H](CC(C)C)C(=O)O)C(C)(C)C)C1=O (H-[Dmt][dR][X1]RRP[X2][Tle]L-OH) is strictly below 500 nM.
MET

Please indicate whether the reported EC50 of Cc1cc(O)cc(C)c1C[C@H](N)C(=O)N[C@H](CCCCN)C(=O)N[C@@H](Cc1ccccc1)C(=O)N[C@@H](Cc1ccccc1)C(=O)N[C@@H](CCCCN)C(=O)N[C@@H](CCCCN)C(=O)N1CCC[C@H]1C(=O)N[C@@H](Cc1ccccc1)C(=O)N[C@H](C(=O)N[C@@H](CC(C)C)C(=O)O)C(C)(C)C (H-[Dmt][dK]FFKKPF[Tle]L-OH) is strictly below 500 nM.
MET

Please indicate whether the reported EC50 of Cc1cc(O)cc(C)c1C[C@H](NC(=O)[C@@H]1CCCN1C(=O)[C@H](CCCNC(=N)N)NC(=O)C[C@H](CCCNC(=N)N)NC(=O)CCN1Cc2ccccc2C[C@H](NC(=O)[C@@H](CCCNC(=N)N)NC(=O)[C@@H](N)Cc2c(C)cc(O)cc2C)C1=O)C(=O)N[C@H](C(=O)N[C@@H](CC(C)C)C(=O)O)C(C)(C)C (H-[Dmt][dR][X1][β3hR]RP[Dmt][Tle]L-OH) is strictly below 500 nM.
MET
